Please provide measured IC50 (M), neutralization for the entries that follow.
# studySystem: SARS-CoV-2 spike protein (S-wt, Wuhan-Hu-1, NCBI Accession Number MN908947.3) on VSV pseudoparticles (SARS-CoV-2, UniProt P0DTC2 14-1273)
# assayProtocol: cell-based or functional assay
Just the number in M, nothing appended.

mAb10954 (antibody, V domains shown) VH: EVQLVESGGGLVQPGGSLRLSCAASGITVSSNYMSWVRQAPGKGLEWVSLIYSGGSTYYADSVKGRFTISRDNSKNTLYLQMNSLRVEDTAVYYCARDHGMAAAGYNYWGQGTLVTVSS VL: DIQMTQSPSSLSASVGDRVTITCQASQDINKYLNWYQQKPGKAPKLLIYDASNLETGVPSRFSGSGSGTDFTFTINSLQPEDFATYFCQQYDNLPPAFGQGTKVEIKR has a reported IC50 (M), neutralization of 9.22e-11

mAb10933 (antibody, V domains shown) VH: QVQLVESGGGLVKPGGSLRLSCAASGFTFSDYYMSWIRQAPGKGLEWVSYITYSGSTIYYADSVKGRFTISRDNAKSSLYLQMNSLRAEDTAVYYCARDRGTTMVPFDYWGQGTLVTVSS VL: DIQMTQSPSSLSASVGDRVTITCQASQDITNYLNWYQQKPGKAPKLLIYAASNLETGVPSRFSGSGSGTDFTFTISGLQPEDIATYYCQQYDNLPLTFGGGTKVEIKR has a reported IC50 (M), neutralization of 4.28e-11

mAb10986 (antibody, V domains shown) VH: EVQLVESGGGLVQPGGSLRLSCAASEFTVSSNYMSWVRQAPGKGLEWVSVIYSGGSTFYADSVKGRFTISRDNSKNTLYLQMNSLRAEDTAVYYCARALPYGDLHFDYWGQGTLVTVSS VL: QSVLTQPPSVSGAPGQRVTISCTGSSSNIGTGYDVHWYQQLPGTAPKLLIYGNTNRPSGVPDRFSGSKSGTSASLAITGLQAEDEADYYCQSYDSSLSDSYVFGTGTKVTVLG has a reported IC50 (M), neutralization of 9.91e-11

mAb10984 (antibody, V domains shown) VH: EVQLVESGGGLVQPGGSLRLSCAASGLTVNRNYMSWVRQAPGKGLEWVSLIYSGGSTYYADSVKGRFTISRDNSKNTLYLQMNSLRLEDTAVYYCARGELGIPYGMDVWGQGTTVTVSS VL: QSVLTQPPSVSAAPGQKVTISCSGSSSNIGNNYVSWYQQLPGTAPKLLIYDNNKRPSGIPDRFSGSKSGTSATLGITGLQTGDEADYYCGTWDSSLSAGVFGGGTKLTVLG has a reported IC50 (M), neutralization of 9.73e-11

Numbers sourced from patent US20240043504A1.
